Assay: MTT cytotoxicity assay
Assay type: cell-based, human
Conditions: human, HEK293T cells, HEK293T, 0.39 µM; read-out: OD450, cytotoxicity (Fig 2a), replicates
Residues, ends and D or L forms follow the SMILES beside them.
Could you please report measured viability at 72 h, 0.39 µM for the items listed next?
Report the figure along with its unit, number first.

>  <COMPOUND>
CC[C@H](C)[C@H](NC(=O)[C@H](CCCNC(=N)N)NC(=O)[C@H](CO)NC(=O)[C@H](CC(C)C)NC(=O)[C@H](Cc1ccccc1)NC(=O)[C@H](Cc1ccccc1)NC(=O)[C@@H](N)Cc1ccccc1)C(=O)N[C@@H](Cc1ccccc1)C(N)=O [SHf] (H-FFFLSRIF-NH2; N-terminus assumed)

>  <viability at 72 h, 0.39 µM>
99%

$$$$

Proceed to the following item.
Which viability at 72 h, 0.39 µM value belongs to CC[C@H](C)[C@H](NC(=O)[C@H](CCCNC(=N)N)NC(=O)[C@H](CCCNC(=N)N)NC(=O)[C@H](CC(C)C)NC(=O)[C@H](Cc1ccccc1)NC(=O)[C@@H](N)CCCNC(=N)N)C(=O)N[C@@H](Cc1ccccc1)C(=O)N[C@@H](Cc1ccccc1)C(=O)N[C@@H](Cc1ccccc1)C(=O)N[C@@H](Cc1ccccc1)C(N)=O [HT2] (H-RFLRRIFFFF-NH2) ?
96.7%

Entry source: paper PMC10657444
